Every entry's value here was drawn from ChEMBL document CHEMBL4368918.

organism: Homo sapiens; test: Selectivity ratio of IC50 for 20S immunoproteasome beta 1 in human Raji cell lysates to IC50 for 20S constitutive proteasome beta 2 trypsin-like activity in human Raji cells; assay type: cell-based
Readings of Ratio IC50 for the listed compounds

A selection of reference data follows.
>  <compound>
COC1CCC(C[C@H](NC(=O)c2cnc(C)s2)C(=O)N[C@@H](CC(C)C)C(=O)N[C@H](/C=C/S(C)(=O)=O)Cc2ccc(CN)cc2)CC1 (stereo not given in full)

>  <measurement-kind>
Ratio IC50

>  <result>
> 220

$$$$
>  <compound>
CC(C)C[C@H](NC(=O)c1cnccn1)C(=O)N[C@@H](CC(C)C)C(=O)N[C@H](/C=C/S(C)(=O)=O)Cc1ccc(CN)cc1

>  <measurement-kind>
Ratio IC50

>  <result>
> 600

$$$$
>  <compound>
Cc1ncc(C(=O)N[C@@H](CC2CCCCC2)C(=O)N[C@@H](CC(C)C)C(=O)N[C@H](/C=C/S(C)(=O)=O)Cc2ccc(CN)cc2)s1

>  <measurement-kind>
Ratio IC50

>  <result>
> 1500

$$$$

Q) Determine from records and report Ratio IC50 for CC(C)C[C@H](NC(=O)[C@H](Cc1ccccc1)N=[N+]=[N-])C(=O)NCC(=O)N[C@H](/C=C/S(C)(=O)=O)Cc1ccc(CN)cc1
A) > 2200

Q) Determine from records and report Ratio IC50 for COC[C@H](NC(=O)[C@H](CC(C)C)NC(=O)c1cnc(C)s1)C(=O)N[C@H](/C=C/S(C)(=O)=O)Cc1ccc(CN)cc1
A) > 1300

---

target: Proteasome subunit beta type-8 (Homo sapiens); assay: Inhibition of 20S immunoproteasome beta 5 in human Raji cell lysates after 1 hr by competitive ABPP assay; assay type: subcellular, Lysate
Sequence (P28062 whole entry): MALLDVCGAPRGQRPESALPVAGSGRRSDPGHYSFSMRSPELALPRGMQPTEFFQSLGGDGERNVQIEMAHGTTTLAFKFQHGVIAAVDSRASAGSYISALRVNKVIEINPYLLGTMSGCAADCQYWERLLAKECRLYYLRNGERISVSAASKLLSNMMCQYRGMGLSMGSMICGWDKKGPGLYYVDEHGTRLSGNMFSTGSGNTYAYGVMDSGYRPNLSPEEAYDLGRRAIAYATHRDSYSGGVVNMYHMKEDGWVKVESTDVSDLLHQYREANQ
measurement-kind: pIC50
Note: pIC50 values are expressed as the negative base-10 logarithm of concentration in M.

A selection of reference data follows.
>  <sample-smiles>
CC(C)C[C@H](NC(=O)[C@H](Cc1ccccc1)N=[N+]=[N-])C(=O)N[C@@H](CO)C(=O)N[C@H](/C=C/S(C)(=O)=O)Cc1ccc(CN)cc1

>  <measurement-kind>
pIC50

>  <measured-number>
5.66

$$$$
>  <sample-smiles>
CC(C)C[C@H](NC(=O)[C@H](Cc1ccccc1)N=[N+]=[N-])C(=O)N[C@@H](CC(C)C)C(=O)N[C@H](/C=C/S(C)(=O)=O)Cc1ccc(CN)cc1

>  <measurement-kind>
pIC50

>  <measured-number>
5.93

$$$$
>  <sample-smiles>
CC(C)C[C@H](NC(=O)[C@H](Cc1ccccc1)N=[N+]=[N-])C(=O)NCC(=O)N[C@H](/C=C/S(C)(=O)=O)Cc1ccc(CN)cc1

>  <measurement-kind>
pIC50

>  <measured-number>
4.90

$$$$

Q) Determine from records and report pIC50 for CC(C)C[C@H](NC(=O)[C@H](Cc1ccccc1)N=[N+]=[N-])C(=O)N[C@H](C(=O)N[C@H](/C=C/S(C)(=O)=O)Cc1ccc(CN)cc1)[C@@H](C)O
A) 5.68

Q) Determine from records and report pIC50 for COc1ccc(C[C@H](NC(=O)[C@H](C)NC(=O)CN2CCOCC2)C(=O)N[C@@H](C[C@@H]2CCC[C@H]3CCCC[C@H]32)C(=O)[C@@]2(C)CO2)cc1
A) 4.55

Q) Determine from records and report pIC50 for COC[C@H](NC(=O)[C@H](CC(C)C)NC(=O)c1cnc(C)s1)C(=O)N[C@H](/C=C/S(C)(=O)=O)Cc1ccc(CN)cc1
A) 4.24

---

species: Homo sapiens; assay: Selectivity ratio of IC50 for 20S immunoproteasome beta 2 (unknown origin) to IC50 for 20S constitutive proteasome beta 2 trypsin-like activity (unknown origin)
Readings of Ratio IC50 for the listed compounds
Lab note: jot down the number only; don't add units.

A selection of reference data follows.
>  <compound>
COC[C@H](NC(=O)[C@H](CC(C)C)NC(=O)[C@H](Cc1ccccc1)N=[N+]=[N-])C(=O)N[C@H](/C=C/S(C)(=O)=O)Cc1ccc(CN)cc1

>  <Ratio IC50>
25

$$$$
>  <compound>
Cc1ncc(C(=O)N[C@@H](CC2CCCCC2)C(=O)N[C@@H](CC2CCCCC2)C(=O)N[C@H](/C=C/S(C)(=O)=O)Cc2ccc(CN)cc2)s1

>  <Ratio IC50>
11

$$$$
>  <compound>
CC(C)C[C@H](NC(=O)[C@H](Cc1ccccc1)N=[N+]=[N-])C(=O)N[C@@H](CC(C)(C)F)C(=O)N[C@H](/C=C/S(C)(=O)=O)Cc1ccc(CN)cc1

>  <Ratio IC50>
3

$$$$
>  <compound>
CC(C)[C@H](NC(=O)[C@H](Cc1ccc(CN)cc1)NC(=O)[C@H](Cc1ccccc1)N=[N+]=[N-])C(=O)N[C@@H](CC1CCC2CCCCC2C1)C(=O)[C@@]1(C)CO1 (stereo partly specified)

>  <Ratio IC50>
1

$$$$
>  <compound>
Cc1ncc(C(=O)N[C@@H](CC(C)C)C(=O)N[C@@H](CCC2CCCCC2)C(=O)N[C@H](/C=C/S(C)(=O)=O)Cc2ccc(CN)cc2)s1

>  <Ratio IC50>
25

$$$$
>  <compound>
CC(C)C[C@H](NC(=O)[C@H](CC(C)C)NC(=O)[C@H](Cc1ccccc1)NC(=O)CN=[N+]=[N-])C(=O)N[C@H](/C=C/S(C)(=O)=O)Cc1ccc(CN)cc1

>  <Ratio IC50>
0.6

$$$$
>  <compound>
Cc1ncc(C(=O)N[C@@H](CC2CCCCC2)C(=O)N[C@@H](CC(C)C)C(=O)N[C@H](/C=C/S(C)(=O)=O)Cc2ccc(CN)cc2)s1

>  <Ratio IC50>
30

$$$$
>  <compound>
COC1CCC(C[C@H](NC(=O)[C@H](CC(C)C)NC(=O)c2cnc(C)s2)C(=O)N[C@H](/C=C/S(C)(=O)=O)Cc2ccc(CN)cc2)CC1 (stereo partly specified)

>  <Ratio IC50>
8

$$$$

Q) Determine from records and report Ratio IC50 for CC(C)C[C@H](NC(=O)[C@H](Cc1ccccc1)N=[N+]=[N-])C(=O)NCC(=O)N[C@H](/C=C/S(C)(=O)=O)Cc1ccc(CN)cc1
A) 224

---

species: Homo sapiens; experiment: Selectivity ratio of IC50 for 20S immunoproteasome beta 2 (unknown origin) to IC50 for 20S constitutive proteasome beta 2 trypsin-like activity (unknown origin)
Readings of Ratio IC50 for the listed molecules

A selection of reference data follows.
>  <molecule>
CC(C)C[C@H](NC(=O)c1cnccn1)C(=O)N[C@@H](C)C(=O)N[C@H](/C=C/S(C)(=O)=O)Cc1ccc(CN)cc1

>  <Ratio IC50>
6

$$$$
>  <molecule>
Cc1ncc(C(=O)N[C@@H](CC(C)C)C(=O)N[C@@H](CC2CCC(C)CC2)C(=O)N[C@H](/C=C/S(C)(=O)=O)Cc2ccc(CN)cc2)s1 (stereo partly drawn)

>  <Ratio IC50>
7

$$$$

Q) Determine from records and report Ratio IC50 for Cc1ncc(C(=O)N[C@@H](CC2CCC(C)CC2)C(=O)N[C@@H](CC(C)C)C(=O)N[C@H](/C=C/S(C)(=O)=O)Cc2ccc(CN)cc2)s1 (stereo partly drawn)
A) 0.8

---

Readings of Ratio IC50 for the listed molecules
species on record: Homo sapiens; assay: Selectivity ratio of IC50 for 20S immunoproteasome beta 2 (unknown origin) to IC50 for 20S constitutive proteasome beta 2 trypsin-like activity (unknown origin)
Lab note: jot down the number only; don't add units.

>  <molecule>
Cc1ncc(C(=O)N[C@@H](CC(C)C)C(=O)N[C@@H](CC2CCCCC2)C(=O)N[C@H](/C=C/S(C)(=O)=O)Cc2ccc(CN)cc2)s1

>  <Ratio IC50>
7

$$$$

Q) Determine from records and report Ratio IC50 for CC(C)C[C@H](NC(=O)c1ccc(-c2ccccc2)nc1)C(=O)N[C@@H](CC(C)C)C(=O)N[C@H](/C=C/S(C)(=O)=O)Cc1ccc(CN)cc1
A) 0.8

Q) Determine from records and report Ratio IC50 for Cc1ncc(C(=O)N[C@@H](CC(C)C)C(=O)N[C@@H](CC2CCC3CCCCC3C2)C(=O)N[C@H](/C=C/S(C)(=O)=O)Cc2ccc(CN)cc2)s1 (stereo partly specified)
A) 10

Q) Determine from records and report Ratio IC50 for Cc1ncc(C(=O)N[C@@H](CC2CCC3CCCCC3C2)C(=O)N[C@@H](CC(C)C)C(=O)N[C@H](/C=C/S(C)(=O)=O)Cc2ccc(CN)cc2)s1 (stereo partly specified)
A) 8

Q) Determine from records and report Ratio IC50 for Cc1ncc(C(=O)N[C@@H](CC(C)C)C(=O)N[C@@H](CC2CCC(C3CCCCC3)CC2)C(=O)N[C@H](/C=C/S(C)(=O)=O)Cc2ccc(CN)cc2)s1 (stereo partly specified)
A) 3

Q) Determine from records and report Ratio IC50 for CC(C)C[C@H](NC(=O)c1cnccn1)C(=O)N[C@@H](CC(C)C)C(=O)N[C@H](/C=C/S(C)(=O)=O)Cc1ccc(CN)cc1
A) 40
